Could you please report measured pest or weed control at 250 g/ha for the items listed next?
- Test system: Setaria faberi (SETFA)
- Assay Method Text: Test 1A glasshouse assay for herbicidal activity, post-emergence
- Type: in vivo
- Conditions Used: 312 h, 250 g/ha, evaluated after 13 days, read-out: percentage phytotoxicity SETFA
Answers are plain numbers, in %.

Solved cases below.
compound="CC#Cc1cc(C)c(C2=C(OC(=O)OC)CC(c3ccccn3)CC2=O)c(C)c1 (stereo not drawn) [Compound A-14]" study_system="Setaria faberi (SETFA)" quantitative_result=100
compound="CC#Cc1ccc(C2C(=O)C3CCC(C3)C2=O)c(C)c1 (single isomer, unassigned) [Compound A-2]" study_system="Setaria faberi (SETFA)" quantitative_result=100
compound="CC#Cc1cc(C)c(C2C(=O)CC(c3ccccn3)CC2=O)c(C)c1 (stereo not drawn) [Compound A-13]" study_system="Setaria faberi (SETFA)" quantitative_result=100
compound="CC#Cc1cc(C)c(C2C(=O)CC(CCSC)CC2=O)c(C)c1 (stereo not drawn) [Compound A-21]" study_system="Setaria faberi (SETFA)" quantitative_result=100
compound="CC#Cc1cc(C)c(C2=C(OC(=O)C(C)(C)C)C3CCC(C3)C2=O)c(C)c1 (stereo not drawn) [Compound P-5]" study_system="Setaria faberi (SETFA)" quantitative_result=90

With those in mind, consider the next compound.
Field pest or weed control at 250 g/ha (entry CC#Cc1cc(Cl)c(C2C(=O)CCCC2=O)c(OC)c1 [Compound A-22] ) reads 100
